Target: T1, Human SIRPαV2 (CAA71403.1), Extracellular Domain + His-Tag (human, UniProt P78324 31-373)
T1 construct: also called huSIRPαV2; hSIRPαV2; not shown: His-Tag
T1 sequence (P78324 other isoform, or with tags, fused parts or gaps): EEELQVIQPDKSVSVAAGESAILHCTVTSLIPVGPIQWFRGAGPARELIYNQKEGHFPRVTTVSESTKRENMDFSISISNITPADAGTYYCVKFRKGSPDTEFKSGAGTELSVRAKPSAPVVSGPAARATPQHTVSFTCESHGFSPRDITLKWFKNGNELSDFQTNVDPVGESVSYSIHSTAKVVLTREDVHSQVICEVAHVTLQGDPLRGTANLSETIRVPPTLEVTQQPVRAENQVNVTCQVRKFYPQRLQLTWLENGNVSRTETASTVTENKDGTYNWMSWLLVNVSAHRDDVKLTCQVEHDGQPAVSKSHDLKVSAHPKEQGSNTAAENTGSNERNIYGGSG
Assay: SPR, antibody captured on Protein A/G, ECD-His analyte, 1:1 fit
Experimental: The binding kinetics of anti-SIRPα antibodies to various SIRPα analytes are determined by surface plasmon resonance (SPR) using a Biacore 8K+(Cytiva). 1×HBS-EP+(Cytiva) is used as running buffer and for all the dilutions unless stated otherwise. […]
Below, each entry is listed with its recorded pKd.
Units for pKd: none; it is -log10 of a concentration expressed in mol/L.

Below, 4 binders whose answers are already recorded.
>  <binder>
Antibody A16 (antibody, human IgG1, kappa, L234A L235A, V domains shown) VH: EVQLVESGGGLVQPGGSLRLSCAASGFTLSSYDMHWVRQAPGKGLEWVSAIGTAGDTYYTGSVKGRFTISRENAKNSLYLQMNSLRAGDTAVYYCVRGGVWDDAFDIWGQGTMVTVSS VL: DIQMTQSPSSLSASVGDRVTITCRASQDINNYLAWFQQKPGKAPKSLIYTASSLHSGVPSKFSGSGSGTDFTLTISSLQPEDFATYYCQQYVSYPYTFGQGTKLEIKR

>  <value>
8.09

$$$$
>  <binder>
Antibody A8 (antibody, human IgG1, kappa, L234A L235A, V domains shown) VH: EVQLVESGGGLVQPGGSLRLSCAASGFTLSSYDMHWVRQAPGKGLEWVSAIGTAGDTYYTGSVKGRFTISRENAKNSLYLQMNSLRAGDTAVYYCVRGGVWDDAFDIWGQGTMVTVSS VL: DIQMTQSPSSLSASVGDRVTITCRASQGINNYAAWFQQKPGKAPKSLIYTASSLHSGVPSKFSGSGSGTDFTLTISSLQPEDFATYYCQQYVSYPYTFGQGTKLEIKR

>  <value>
7.73

$$$$
>  <binder>
Antibody E21 (antibody, human IgG1, kappa, L234A L235A, V domains shown) VH: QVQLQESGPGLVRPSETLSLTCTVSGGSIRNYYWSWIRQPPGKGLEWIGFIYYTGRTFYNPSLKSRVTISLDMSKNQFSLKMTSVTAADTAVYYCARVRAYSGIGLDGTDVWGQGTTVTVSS VL: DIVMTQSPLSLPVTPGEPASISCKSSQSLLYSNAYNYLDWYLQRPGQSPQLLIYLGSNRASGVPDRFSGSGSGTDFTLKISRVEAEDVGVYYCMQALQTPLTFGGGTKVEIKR

>  <value>
8.86

$$$$
>  <binder>
Antibody E11 (antibody, human IgG1, kappa, L234A L235A, V domains shown) VH: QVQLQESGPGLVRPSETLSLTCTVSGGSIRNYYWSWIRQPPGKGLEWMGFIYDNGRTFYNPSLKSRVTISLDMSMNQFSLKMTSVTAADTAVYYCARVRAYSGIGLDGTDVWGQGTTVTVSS VL: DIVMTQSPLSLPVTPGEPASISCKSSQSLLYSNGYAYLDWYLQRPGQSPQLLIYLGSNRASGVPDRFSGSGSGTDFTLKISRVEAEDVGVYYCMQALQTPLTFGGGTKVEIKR

>  <value>
9.24

$$$$

Task: Form field: reported pKd of Antibody E8 (antibody, human IgG1, kappa, L234A L235A, V domains shown) VH: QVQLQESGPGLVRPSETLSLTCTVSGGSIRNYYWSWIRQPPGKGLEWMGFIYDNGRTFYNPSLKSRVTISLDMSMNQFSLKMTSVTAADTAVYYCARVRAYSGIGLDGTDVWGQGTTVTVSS VL: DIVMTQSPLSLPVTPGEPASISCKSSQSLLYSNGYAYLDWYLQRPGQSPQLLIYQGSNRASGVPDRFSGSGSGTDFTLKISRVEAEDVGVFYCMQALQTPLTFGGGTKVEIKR
Output: 9.27
